The molecules listed here are annotated with their Selectivity.
Tested on: Drosophila melanogaster
Assay: Selectivity ratio of Ki of Nicotinic acetylcholine receptor of Drosophila to Nicotinic acetylcholine receptor alpha4-beta2
readoutType: Selectivity

• N=C1NCCN1Cc1ccc(Cl)nc1 = 364
• O=[N+]([O-])/N=c1\sccn1Cc1ccc(Cl)nc1 = 486
• N#C/N=c1\sccn1Cc1cnc(Cl)c(N=[N+]=[N-])c1 = 4.3
• [N-]=[N+]=Nc1cc(Cl)ncc1Cn1ccnc1N[N+](=O)[O-] = 37
• N#C/N=c1\sccn1Cc1ccc(Cl)nc1 = 86
• [N-]=[N+]=Nc1cncc(Cn2ccnc2N[N+](=O)[O-])c1 = 10
• [N-]=[N+]=Nc1cc(Cn2ccsc2=N)cnc1Cl = 1600

====

System: Drosophila melanogaster
Experiment: Selectivity ratio of Ki of Nicotinic acetylcholine receptor of Drosophila to Nicotinic acetylcholine receptor alpha4-beta2
Documented Selectivity across a set of compounds
readoutType: Selectivity

* [N-]=[N+]=Nc1cc(CN2CCN=C2N)cnc1Cl | 2190
* [N-]=[N+]=Nc1ccncc1Cn1ccnc1N[N+](=O)[O-] | 27
* O=[N+]([O-])/N=C1\NCCN1Cc1ccc(Cl)nc1 | 327
* [N-]=[N+]=Nc1cc(CN2CCN/C2=N\[N+](=O)[O-])cnc1Cl | 14

====

Target: Neuronal acetylcholine receptor; alpha4/beta2
Assay: Potency to displace [3H]nicotine binding to Nicotinic acetylcholine receptor alpha4-beta2 immuno-isolated from M10 cells
pKi: −log10 of the molar value.
Items are presented alongside their recorded pKi.
readoutType: pKi

* O=[N+]([O-])NC1=NCCN1Cc1ccc(Cl)nc1 [IMIDACLOPRID] | 6.14
* [N-]=[N+]=Nc1cc(Cn2ccnc2N[N+](=O)[O-])cnc1Cl | 6.52
* [N-]=[N+]=Nc1cc(Cn2ccs/c2=N\[N+](=O)[O-])cnc1Cl | 6.77
